Substrate: O=c1[nH]c(=O)c2[nH]c(=O)[nH]c2[nH]1
Assay: purified protein
Type: biochemical, Latimeria menadoensis
Settings: 50 mM sodium borate pH 8.0, 30 °C, 15-120 µM uric acid
readout_kind: kcat (s⁻¹)
Supply the numeric figure in s⁻¹, leaving out any unit text.

Please report the recorded kcat for L. menadoensis uricase I27C/N289C mutant (enzyme, UniProt M3XGK0 1-306, looked up, His6 tag joined by two residues from the XhoI site, as in m1; which cysteines pair (C27 with C289 of the other subunit of a dimer) is a prediction only; source: E. coli BL21(DE3), purified (Ni-NTA IMAC, gel filtration); not shown: His6, C-terminal, kept) MSHYVSSTRFQKDTDVEFVRTGYGKNCVKVLHIKREGKTHYIKEVEVAVQLALKSRKDYLYGDNSDIIPTDTMKNTVHALAKLKGINTIEEFAMDICEHFLTSFNHVTRANTYVEEAPWKRMEKNEVKHVHAFIYSPEATRFCEVEHHQNEPPVVHSGIKDMKVLKTTQSGFEGFVKDRFTTLPEVTDRCFSTVIYSKWLYNRSKNIDFDAAWKTVYDVIIEKFAGPYECGEYSPSVQKTLYETQVLCLNRVPEIEEVEIVMPNKHYFTIDMSKIGIVNKDEVLLPLDCPSGNITGTVRRKAHSKL . 32.6
